organism: Rattus norvegicus; test: Open TG-GATES - Regimen: Daily Repeat; format: toxicity, organism-based, Sprague-Dawley; set-up: regimen Daily Repeat, gender Male, age 6 weeks; conditions: in vivo, po, 0 mg/kg, […], tissue Plasma, route gavage, dose level Control, time 7 day
QUANTITY NAME: TG (mg/dL)
Numbers only; they are read as mg/dL.

Recorded TG for CN1C(=O)CCS(=O)(=O)C1c1ccc(Cl)cc1 (stereo not drawn) , please? 121.6

I have this compound here, "COC(=O)C1=C(C)NC(C)=C(C(=O)OC)C1c1ccccc1[N+](=O)[O-]" , and I need its recorded TG. 111.8

// returns reported TG for input "CN/C(=N/CCSCc1nc[nH]c1C)NC#N" 138.8

Name the recorded TG for CN(C)CCC(c1ccc(Cl)cc1)c1ccccn1 (stereo not drawn) . 139.6

Find the recorded TG belonging to "Cc1nnc2n1-c1ccc(Cl)cc1C(c1ccccc1Cl)=NC2" and report it. 122.8

# lookup: TG of "O=C(OC[C@H]1O[C@@H](OC(=O)c2cc(O)c(O)c(OC(=O)c3cc(O)c(O)c(O)c3)c2)[C@H](OC(=O)c2cc(O)c(O)c(OC(=O)c3cc(O)c(O)c(O)c3)c2)[C@@H](OC(=O)c2cc(O)c(O)c(OC(=O)c3cc(O)c(O)c(O)c3)c2)[C@@H]1OC(=O)c1cc(O)c(O)c(OC(=O)c2cc(O)c(O)c(O)c2)c1)c1cc(O)c(O)c(OC(=O)c2cc(O)c(O)c(O)c2)c1" 119.6

Can you look up the measured TG of "CNC(=C[N+](=O)[O-])NCCSCc1ccc(CN(C)C)o1" for me? 103.6

Give the measured TG of "CCCc1cc(=O)[nH]c(=S)[nH]1" . 127

Dear colleague, I am looking for the recorded TG of the following compound: "CC(C)NNC(=O)c1ccncc1" 110.6

# get_value(readout='TG', item= "CCOc1ccc(NC(C)=O)cc1" ) 127.8

Could you tell me which TG is on file for NC1=NC(=O)C(c2ccccc2)O1 (stereo not drawn) ? 131.8

Recorded TG of "Nc1c2c(nc3ccccc13)CCCC2" , please. 110

Query (compound): "Brc1ccccc1" ; field requested: TG 90.2

###

Field: WBC. Provide a value for each of the compounds that follow.
species: Rattus norvegicus; assay: Open TG-GATES - Regimen: Single; type: toxicity, organism-based, Sprague-Dawley; design: regimen Single, gender Male, age 6 weeks; details: in vivo, po, 0 mg/kg, 24 h, tissue Blood, route gavage, dose level Control
Provide the reading as a plain figure in x10_2/uL.

Endpoint output: WBC of "CCOc1ccc(NC(C)=O)cc1" . Value? 100.3

Given the entry "Cc1nnc2n1-c1ccc(Cl)cc1C(c1ccccc1Cl)=NC2" , report its measured WBC. 87

What does the record list as WBC for "Brc1ccccc1" ? 81.7

// lookup WBC for "Nc1c2c(nc3ccccc13)CCCC2" 106.1

I am curious: what WBC value has been reported for "CNC(=C[N+](=O)[O-])NCCSCc1ccc(CN(C)C)o1" ? 112

Quick one: WBC of NC1=NC(=O)C(c2ccccc2)O1 (centres undefined) ? 92.6

Recorded WBC for "COC(=O)C1=C(C)NC(C)=C(C(=O)OC)C1c1ccccc1[N+](=O)[O-]" , please? 87.2

For CS(=O)(=O)O.Cc1ccc(NC(=O)c2ccc(CN3CCN(C)CC3)cc2)cc1Nc1nccc(-c2cccnc2)n1 [IMATINIB MESYLATE] , what is its reported WBC? 100.4

So what's the measured WBC for this one? "CCCc1cc(=O)[nH]c(=S)[nH]1" 123.5

What WBC value was documented for this compound, "O=C(OC[C@H]1O[C@@H](OC(=O)c2cc(O)c(O)c(OC(=O)c3cc(O)c(O)c(O)c3)c2)[C@H](OC(=O)c2cc(O)c(O)c(OC(=O)c3cc(O)c(O)c(O)c3)c2)[C@@H](OC(=O)c2cc(O)c(O)c(OC(=O)c3cc(O)c(O)c(O)c3)c2)[C@@H]1OC(=O)c1cc(O)c(O)c(OC(=O)c2cc(O)c(O)c(O)c2)c1)c1cc(O)c(O)c(OC(=O)c2cc(O)c(O)c(O)c2)c1" ? 98.7

Which measured WBC value corresponds to "CC(C)NNC(=O)c1ccncc1" ? 113.7

Returns the measured WBC for the input compound. Input: "CN/C(=N/CCSCc1nc[nH]c1C)NC#N" 98.2

Please give the measured WBC for this compound: CN(C)CCC(c1ccc(Cl)cc1)c1ccccn1 (centres undefined) 75.5

Report WBC for CN1C(=O)CCS(=O)(=O)C1c1ccc(Cl)cc1 (centres undefined) please. 77.6
